assay: Circulating half-life in monkey; format: in vivo; conditions: in vivo, assays conducted by applicant, read-out: Half-life (converted)
*1 amine or outer side, *2 acyl side, *3 side chain or, on linkers, in order; H or OH if unused. Where a SMILES comes first, the peptide text is derived from it. Bridges are numbered along the chain shown (N, C = ends). [ ]: non-standard residue; d: D form. The star is where a group is joined. pTerphenylCO(4''-OnC5H11) = CCCCCOc1ccc(-c2ccc(-c3ccc(C(=O)*)cc3)cc2)cc1; Orn(4R-OH,5R-OH) = O=C([C@H](C[C@@H](O)[C@@H](O)N[*:3])N[*:1])[*:2]; hTyr(3S-OH,4S-OH) = N[C@H](C(=O)O)[C@H](O)[C@@H](O)c1ccc(O)cc1; Pro(3S-OH,4S-Me) = C[C@H]1CN[C@H](C(=O)O)[C@H]1O; Hyp = O=C(O)[C@@H]1C[C@@H](O)CN1
testReadout: Half-life (h)

compound: CCCCCOc1ccc(-c2ccc(-c3ccc(C(=O)N[C@H]4C[C@@H](O)[C@@H](O)NC(=O)[C@@H]5[C@@H](O)[C@@H](C)CN5C(=O)[C@H]([C@@H](C)O)NC(=O)[C@H]([C@H](O)[C@@H](O)c5ccc(O)cc5)NC(=O)[C@@H]5C[C@@H](O)CN5C(=O)[C@H]([C@@H](C)O)NC4=O)cc3)cc2)cc1 [Anidulafungin, anidulafungin, reference compound] ({pTerphenylCO(4''-OnC5H11)}-[Orn(4R-OH,5R-OH)]T[Hyp][hTyr(3S-OH,4S-OH)]T[Pro(3S-OH,4S-Me)]; lactam 1-C)
endpointUnit: h
readoutNumber: 8

* * *

Assay: Pharmacokinetics (oral bioavailability) following oral administration in beagle dogs
Assay type: in vivo
Set-up: key: NI = no improvement in oral bioavailability in comparison to saline
Details: oral, formulation 7
Protocol: Echinocandin class compounds were administered to beagle dogs weighing approximately 6-10 kg. Each animal received the appropriate prepared test article in a single oral capsule dose at a target dose level of about 7-10 mg/kg. Immediately after dosing, each animal was offered 20 mL-30 mL of water orally (Groups 1-4) or 30 mL of water orally to assist in swallowing the capsule. Animals were treated and blood samples were drawn and analyzed as provided in Example 1. […]
testReadout: Improvement (ratio of % oral bioavailability to saline)

compound: CCCCCOc1ccc(-c2ccc(-c3ccc(C(=O)NC4CC(O)C(OCCOCCO)NC(=O)C5C(O)C(C)CN5C(=O)C(C(C)O)NC(=O)C(C(O)C(O)c5ccc(O)cc5)NC(=O)C5CC(O)CN5C(=O)C(C(C)O)NC4=O)cc3)cc2)cc1 (stereo not shown)
result: NI
//
compound: CCCCCOc1ccc(-c2ccc(-c3ccc(C(=O)NC4CC(O)C(NCC[N+](C)(C)C)NC(=O)C5C(O)C(C)CN5C(=O)C(C(C)O)NC(=O)C(C(O)C(O)c5ccc(O)cc5)NC(=O)C5CC(O)CN5C(=O)C(C(C)O)NC4=O)cc3)cc2)cc1 (stereo not shown)
result: NI
//
compound: CC(=O)[O-].CCCCCOc1ccc(-c2ccc(-c3ccc(C(=O)NC4CC(O)C(OCC[N+](C)(C)C)NC(=O)C5C(O)C(C)CN5C(=O)C(C(C)O)NC(=O)C(C(O)C(O)c5ccc(O)cc5)NC(=O)C5CC(O)CN5C(=O)C(C(C)O)NC4=O)cc3)cc2)cc1 (stereo not shown)
result: 3.5
//
compound: CCCCCOc1ccc(-c2ccc(-c3ccc(C(=O)NC4CC(O)C(OCCOCCN)NC(=O)C5C(O)C(C)CN5C(=O)C(C(C)O)NC(=O)C(C(O)C(O)c5ccc(O)cc5)NC(=O)C5CC(O)CN5C(=O)C(C(C)O)NC4=O)cc3)cc2)cc1 (stereo not shown)
result: NI
